Hey, just so you know, these numbers are from ChEMBL document CHEMBL6071176.

Test system: Escherichia coli
assay remarks: Antimicrobial activity against Escherichia coli assessed as inhibition of growth incubated for 18 hrs by CLSI guidelines based assay
Type: functional
Can you tell me MIC for the items I'm about to list?
Please append the unit to your numeric answer.

According to the records, this molecule C[C@@H](O)[C@H]1C(=O)N2C(C(=O)O)=C(S[C@@H]3CN[C@H](C(=O)N(C)C)C3)[C@H](C)[C@H]12 [MEROPENEM] displays MIC of 1 µg/mL

MIC measured on C[N+](C)(CCCCCOc1cc(OCCCCC[N+](C)(C)CCCCOc2ccccc2)cc(OCCCCC[N+](C)(C)CCCCOc2ccccc2)c1)CCCCOc1ccccc1.[Br-].[Br-].[Br-] = 2 µg/mL

Form field MIC, entry CCCC[N+](C)(C)CCCCCOc1cc(OCCCCC[N+](C)(C)CCCC)cc(OCCCCC[N+](C)(C)CCCC)c1.[Br-].[Br-].[Br-] : 32 µg/mL

Summary for this molecule, CCCCCCCC[N+](C)(C)CCCCCOc1cc(OCCCCC[N+](C)(C)CCCCCCCC)cc(OCCCCC[N+](C)(C)CCCCCCCC)c1.[Br-].[Br-].[Br-] : MIC is 4 µg/mL

Measured MIC of C[N+](C)(CCCCCOc1cc(OCCCCC[N+](C)(C)CCCCc2ccccc2)cc(OCCCCC[N+](C)(C)CCCCc2ccccc2)c1)CCCCc1ccccc1.[Br-].[Br-].[Br-] : 2 µg/mL

Entry CCCCCCCNC(=O)C[N+](C)(C)CCCCCCCCCCCC[N+](C)(C)CC(=O)NCCCCCCC.[Br-].[Br-] ; MIC = 0.062 µg/mL
